assay: ATG_GRE_CIS: Attagene CIS-FACTORIAL HepG2 Assay for human Glucocorticoid Response Elements (GRE) (AID 2282947); conditions: HepG2 GRE cis-reporter, Attagene multiplex mRNA; actives raise or lower the signal
Activity calls are given as the source filed them. The calls were made as follows: active = hit-call score of the fitted dose curve at least 0.9, where 1 is the maximum; inactive = score below 0.9.
Outcomes: active, inactive

{"molecule": "CCOC(OCC)OCC", "category_label": "inactive"}
{"molecule": "O=C(Cl)C(F)(F)C(F)(F)C(F)(F)C(F)(F)C(F)(F)C(F)(F)F", "category_label": "inactive"}
{"molecule": "O=C=Nc1cccc2c(N=C=O)cccc12", "category_label": "inactive"}
{"molecule": "Cc1cc(O)c(C(C)(C)C)cc1C(C)(C)C", "category_label": "inactive"}
{"molecule": "c1ccc(C[P+](c2ccccc2)(c2ccccc2)c2ccccc2)cc1", "category_label": "inactive"}
{"molecule": "COCCOCCC[Si](C)(O[Si](C)(C)C)O[Si](C)(C)C", "category_label": "active"}
{"molecule": "OCC(O)CC(F)(F)C(F)(F)C(F)(F)C(F)(F)F (stereo not given)", "category_label": "inactive"}
{"molecule": "N#Cc1ccccc1O", "category_label": "inactive"}
{"molecule": "O=C=NCc1cccc(CN=C=O)c1", "category_label": "inactive"}
{"molecule": "Cc1ccc2c(c1)OCC(=O)CO2", "category_label": "inactive"}

* * *

target: Peroxisome proliferator-activated receptor gamma (Homo sapiens); test: ATG_PPARg_TRANS: Attagene TRANS-FACTORIAL HepG2 Assay for human Peroxisome Proliferator-activated Receptor-gamma (PPARg) (AID 2283007)
Records with an inconclusive call do not appear. Activity calls are given as the source filed them. Rule for the calls: active = hit-call score of the fitted dose curve at least 0.9, where 1 is the maximum; inconclusive = response in the unintended direction; inactive = score below 0.9.
Outcomes: active, inactive

{"compound": "O=S(=O)(Cl)C(F)(F)C(F)(F)C(F)(F)C(F)(F)C(F)(F)C(F)(F)C(F)(F)C(F)(F)F", "category_label": "active"}
{"compound": "Oc1ccc2c(c1)CCC2", "category_label": "inactive"}
{"compound": "O=C(O)CCC(F)(F)C(F)(F)C(F)(F)F", "category_label": "inactive"}
{"compound": "O=C(O)CCC(F)(F)C(F)(F)C(F)(F)C(F)(F)C(F)(F)C(F)(F)C(F)(F)F", "category_label": "active"}
{"compound": "CC(C)(C)c1cc(Cc2cc(C(C)(C)C)c(O)c(C(C)(C)C)c2)cc(C(C)(C)C)c1O", "category_label": "inactive"}
{"compound": "CC(O)C#CC(C)O (stereo not given)", "category_label": "active"}
{"compound": "CSc1ccc(O)cc1C", "category_label": "inactive"}
{"compound": "O=C(O)C(F)(F)C(F)(F)C(F)(F)OC(F)(F)F", "category_label": "inactive"}
{"compound": "CCCCCCCCCc1ccc(OCCO)cc1", "category_label": "inactive"}
{"compound": "CC(C)(C)C(=O)C1C(=O)c2ccccc2C1=O", "category_label": "active"}
{"compound": "CCN(CC)c1ccc2c(c1)Oc1cc(N(CC)CC)ccc1C21OC(=O)c2ccccc21", "category_label": "active"}
{"compound": "CCCCCCCCCCCCCC[P+](CCCC)(CCCC)CCCC", "category_label": "inactive"}
{"compound": "N#CCCOCCC#N", "category_label": "inactive"}
{"compound": "OCCCC(F)(F)C(F)(F)C(F)(F)C(F)(F)C(F)(F)C(F)(F)C(F)(F)C(F)(F)F", "category_label": "inactive"}
{"compound": "CCN=c1cc2oc3cc(NCC)c(C)cc3c(-c3ccccc3C(=O)OCC)c-2cc1C", "category_label": "inactive"}

Data provenance is PubChem BioAssay (EPA / NIEHS).
